Biological target: human sodium-dependent glucose transporter 1 (SGLT1, SLC5A1) (Homo sapiens, UniProt P13866)
Construct: Bases 11 to 2005 correspond to the complete coding region of human SGLT1; expressed in transfected cells
Sequence (P13866 1-664): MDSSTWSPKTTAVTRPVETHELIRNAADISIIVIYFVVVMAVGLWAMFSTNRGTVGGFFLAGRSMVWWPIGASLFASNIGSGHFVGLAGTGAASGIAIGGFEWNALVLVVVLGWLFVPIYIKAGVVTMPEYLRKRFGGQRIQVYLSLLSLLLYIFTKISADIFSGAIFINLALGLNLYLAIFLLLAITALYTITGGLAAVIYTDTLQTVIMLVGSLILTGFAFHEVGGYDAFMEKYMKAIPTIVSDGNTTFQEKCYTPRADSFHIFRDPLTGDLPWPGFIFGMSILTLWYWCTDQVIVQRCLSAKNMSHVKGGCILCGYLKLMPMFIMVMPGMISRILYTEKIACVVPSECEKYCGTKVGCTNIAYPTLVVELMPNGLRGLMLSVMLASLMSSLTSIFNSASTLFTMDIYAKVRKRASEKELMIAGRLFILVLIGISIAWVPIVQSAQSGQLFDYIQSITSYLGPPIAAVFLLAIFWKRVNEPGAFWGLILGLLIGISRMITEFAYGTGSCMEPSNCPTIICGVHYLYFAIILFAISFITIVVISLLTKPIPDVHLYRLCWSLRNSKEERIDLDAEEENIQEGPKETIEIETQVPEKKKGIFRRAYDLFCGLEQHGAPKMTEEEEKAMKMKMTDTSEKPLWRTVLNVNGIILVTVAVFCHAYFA
Test: Inhibition of the transport activity of human SGLT1 in vitro (α-MDG uptake in CHO-TRex-hSGLT1 cells)
Format: cell-based
Conditions: 50 μM α-MDG, 30 min at room temperature
pIC50: −log10 of the molar value.
This section presents molecules with their documented pIC50 values.
metric: pIC50

{"columns": ["molecule", "endpoint_value"],
 "data": [
  ["CCOC(=O)OCC1OC(c2ccc(Cl)c(Cc3ccc(OC)cn3)c2)C(O)C(O)C1F (centres unmarked)", 5.37],
  ["COc1ccc(Cc2cc([C@@H]3O[C@H](CO)[C@@H](F)[C@H](O)[C@H]3O)ccc2OC(F)(F)F)cc1", 6.63],
  ["OC[C@H]1O[C@@H](c2ccc(Cl)c(Cc3ccc(Cl)cc3)c2)[C@H](O)[C@@H](O)C1(F)F", 5.59],
  ["CC(C)Oc1ccc(Cc2cc([C@@H]3O[C@H](CO)C(F)(F)[C@H](O)[C@H]3O)ccc2Cl)cc1", 4.92],
  ["COc1ccc(Cc2cc(C3OC(CO)C(F)(F)C(O)C3O)ccc2Cl)cc1 (centres unmarked)", 5.85],
  ["OC[C@H]1O[C@@H](c2ccc(Cl)c(Cc3ccc(Cl)cc3)c2)[C@H](O)[C@@H](O)[C@@H]1F", 6.48],
  ["CCOc1ccc(Cc2cc(C3OC(CO)C(F)C(O)C3O)ccc2Cl)cc1 (centres unmarked)", 6.12],
  ["CCc1ccc(Cc2cc(C3OC(CO)C(F)(F)C(O)C3O)ccc2Cl)cc1 (centres unmarked)", 5.10]
]}

====

target: human sodium-dependent glucose transporter 1 (SGLT1, SLC5A1) (Homo sapiens, UniProt P13866); construct: Bases 11 to 2005 correspond to the complete coding region of human SGLT1; assay: Inhibition of the transport activity of human SGLT1 in vitro (α-MDG uptake in CHO-TRex-hSGLT1 cells); conditions: 50 μM α-MDG, 30 min at room temperature
pIC50: −log10 of the molar value.
metric: pIC50

{"columns": ["compound", "metric", "endpoint_value"],
 "data": [
  ["COc1ccc(Cc2cccc(C3OC(CO)C(F)C(O)C3O)c2)cc1 (centres unmarked)", "pIC50", 6.76],
  ["COc1ccc(Cc2cc(C3OC(CO)C(F)C(O)C3O)ccc2Cl)nc1 (centres unmarked)", "pIC50", 5.57],
  ["OCC1OC(c2ccc(Cl)c(Cc3ccc(OC(F)(F)F)cc3)c2)C(O)C(O)C1F (centres unmarked)", "pIC50", 5.46],
  ["CCc1ccc(Cc2cc(C3OC(CO)C(F)C(O)C3O)ccc2Cl)cc1 (centres unmarked)", "pIC50", 6.01],
  ["CCOC(=O)OCC1OC(c2ccc(F)c(Cc3ccc(OC)cc3)c2)C(O)C(O)C1(F)F (centres unmarked)", "pIC50", 4.89]
]}

====

target: human sodium-dependent glucose transporter 2 (SGLT2, SLC5A2) (Homo sapiens, UniProt P31639); construct: Bases 21 to 2039 correspond to the complete coding region of human SGLT2; experiment: Inhibition of the transport activity of human SGLT2 in vitro (α-MDG uptake in CHO-TRex-hSGLT2 cells); details: 50 μM α-MDG, 120 min at 37° C.
Sequence (P31639 whole entry): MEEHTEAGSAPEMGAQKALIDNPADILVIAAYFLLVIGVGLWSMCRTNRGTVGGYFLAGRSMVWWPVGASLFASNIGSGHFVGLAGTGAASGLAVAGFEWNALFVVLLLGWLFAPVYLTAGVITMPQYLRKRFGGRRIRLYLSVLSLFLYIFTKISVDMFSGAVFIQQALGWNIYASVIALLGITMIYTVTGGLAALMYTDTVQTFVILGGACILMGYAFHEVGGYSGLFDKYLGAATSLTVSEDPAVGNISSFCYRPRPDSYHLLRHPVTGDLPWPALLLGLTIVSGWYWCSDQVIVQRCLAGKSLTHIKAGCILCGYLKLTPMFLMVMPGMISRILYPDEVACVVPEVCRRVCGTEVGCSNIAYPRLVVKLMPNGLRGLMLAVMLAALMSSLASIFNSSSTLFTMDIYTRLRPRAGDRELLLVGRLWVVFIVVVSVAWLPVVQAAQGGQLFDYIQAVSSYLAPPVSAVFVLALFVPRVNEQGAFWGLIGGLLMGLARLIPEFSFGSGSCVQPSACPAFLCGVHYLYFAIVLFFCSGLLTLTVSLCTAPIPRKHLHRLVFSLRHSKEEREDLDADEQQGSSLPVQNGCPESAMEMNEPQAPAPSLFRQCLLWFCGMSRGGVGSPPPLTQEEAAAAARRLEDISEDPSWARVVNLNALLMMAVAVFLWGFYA
pIC50: −log10 of the molar value.
This section presents compounds with their documented pIC50 values.

{"columns": ["compound", "pIC50"],
 "data": [
  ["CCOC(=O)OCC1OC(c2ccc(Cl)c(Cc3ccc(OCC)cc3)c2)C(O)C(O)C1(F)F (centres unmarked) [Example 18]", 6.05],
  ["COc1ccc(Cc2cc(C3OC(CO)C(F)C(O)C3O)ccc2Br)cc1 (centres unmarked) [Example 56]", 8.03],
  ["COc1ccc(Cc2cccc(C3OC(CO)C(F)C(O)C3O)c2)cc1 (centres unmarked) [Example 5]", 8.30],
  ["CCOC(=O)OCC1OC(c2ccc(F)c(Cc3ccc(OC)cc3)c2)C(O)C(O)C1F (centres unmarked) [Example 8]", 5.85],
  ["COc1ccc(Cc2cc(C3OC(CO)C(F)C(O)C3O)ccc2F)cc1 (centres unmarked) [Example 9]", 7.49]
]}

====

target: human sodium-dependent glucose transporter 1 (SGLT1, SLC5A1) (Homo sapiens, UniProt P13866); construct: Bases 11 to 2005 correspond to the complete coding region of human SGLT1; assay: Inhibition of the transport activity of human SGLT1 in vitro (α-MDG uptake in CHO-TRex-hSGLT1 cells); conditions: 50 μM α-MDG, 30 min at room temperature
Please use true for IC50 under 0.6 µM and false for everything else, ties included.

{"columns": ["compound", "assigned_label"],
 "data": [
  ["CCOC(=O)OCC1OC(c2ccc(Cl)c(Cc3ccc(OCC)cc3)c2)C(O)C(O)C1F (centres unmarked)", "false"],
  ["CCc1ccc(Cc2cc(C3OC(CO)C(F)C(O)C3O)ccc2C)cc1 (centres unmarked)", "true"],
  ["CCOC(=O)OCC1OC(c2ccc(Cl)c(Cc3ccc(OC(F)(F)F)cc3)c2)C(O)C(O)C1F (centres unmarked)", "false"],
  ["CCOc1ccc(Cc2cc(C3OC(CO)C(F)(F)C(O)C3O)ccc2Cl)cc1 (centres unmarked)", "false"],
  ["COc1ccc(Cc2cc(C3OC(CO)C(F)C(O)C3O)ccc2Br)cc1 (centres unmarked)", "true"],
  ["CCOC(=O)OC[C@H]1O[C@@H](c2ccc(OC(F)(F)F)c(Cc3ccc(OC)cc3)c2)[C@H](O)[C@@H](O)C1(F)F", "false"],
  ["COc1ccc(Cc2cc(C3OC(CO)C(F)C(O)C3O)ccc2F)cc1 (centres unmarked)", "false"]
]}

====

biological target: human sodium-dependent glucose transporter 2 (SGLT2, SLC5A2) (Homo sapiens, UniProt P31639); construct: Bases 21 to 2039 correspond to the complete coding region of human SGLT2; experiment: Inhibition of the transport activity of human SGLT2 in vitro (α-MDG uptake in CHO-TRex-hSGLT2 cells); settings: 50 μM α-MDG, 120 min at 37° C.
pIC50: −log10 of the molar value.
Label rule met when pIC50 >= 7; otherwise rule not met.

{"columns": ["molecule", "assigned_label"],
 "data": [
  ["CCc1ccc(Cc2cc(C3OC(CO)C(F)C(O)C3O)ccc2Cl)s1 (centres unmarked)", "rule met"],
  ["COc1ccc(Cc2cc(C3OC(CO)C(F)(F)C(O)C3O)ccc2Cl)nc1 (centres unmarked)", "rule not met"],
  ["COc1ccc(Cc2cc(C3OC(CO)C(F)(F)C(O)C3O)ccc2C)cc1 (centres unmarked)", "rule met"],
  ["CCc1ccc(Cc2cc(C3OC(CO)C(F)(F)C(O)C3O)ccc2C(F)(F)F)cc1 (centres unmarked)", "rule not met"],
  ["CCOC(=O)OCC1OC(c2ccc(Cl)c(Cc3ccc(OC(F)(F)F)cc3)c2)C(O)C(O)C1F (centres unmarked)", "rule not met"],
  ["CCOC(=O)OCC1OC(c2ccc(Cl)c(Cc3ccc(OC)cc3)c2)C(O)C(O)C1(F)F (centres unmarked)", "rule not met"],
  ["CCOC(=O)OCC1OC(c2ccc(Cl)c(Cc3ccc(OC)cn3)c2)C(O)C(O)C1F (centres unmarked)", "rule not met"],
  ["OCC1OC(c2ccc(Cl)c(Cc3ccc(OC(F)(F)F)cc3)c2)C(O)C(O)C1F (centres unmarked)", "rule met"],
  ["COc1ccc(Cc2cc(C3OC(CO)C(F)(F)C(O)C3O)ccc2F)cc1 (centres unmarked)", "rule met"],
  ["COc1ccc(Cc2cc(C3OC(CO)C(F)C(O)C3O)ccc2OC)cc1 (centres unmarked)", "rule met"],
  ["Cc1ccc(C2OC(CO)C(F)(F)C(O)C2O)cc1Cc1ccc(O)cc1 (centres unmarked)", "rule met"],
  ["CCOC(=O)OCC1OC(c2ccc(Cl)c(Cc3ccc(OC)cc3)c2)C(O)C(O)C1F (centres unmarked)", "rule not met"]
]}
